A short record of Ki observed with Procathepsin L (Homo sapiens, UniProt P07711) follows.
Sequence (P07711 whole entry): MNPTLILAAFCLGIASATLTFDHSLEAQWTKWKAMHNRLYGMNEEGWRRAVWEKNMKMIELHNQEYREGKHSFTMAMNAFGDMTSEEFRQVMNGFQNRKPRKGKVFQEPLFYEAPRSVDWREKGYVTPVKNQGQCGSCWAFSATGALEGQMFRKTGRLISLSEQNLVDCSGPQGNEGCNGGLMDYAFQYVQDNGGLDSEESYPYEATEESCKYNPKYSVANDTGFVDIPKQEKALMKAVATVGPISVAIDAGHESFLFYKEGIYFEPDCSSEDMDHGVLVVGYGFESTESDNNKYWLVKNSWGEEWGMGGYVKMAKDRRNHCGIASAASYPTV

MOLECULE | TESTED_SYSTEM | Ki, nM
CCC(C)[C@H](NC(=O)c1cccc(CN)c1)C(=O)N[C@@H](CCc1ccccc1)C(=O)CO (some centres undefined) | Procathepsin L (Homo sapiens, UniProt P07711) | 81
CCC(C)[C@H](NC(=O)c1cccc(C(N)=O)c1)C(=O)N[C@@H](CCc1ccccc1)C(=O)CO (some centres undefined) | Procathepsin L (Homo sapiens, UniProt P07711) | 790
CCC(C)[C@H](NC(=O)OCc1ccccc1)C(=O)N[C@@H](CCc1ccccc1)C(=O)CO (some centres undefined) | Procathepsin L (Homo sapiens, UniProt P07711) | 3000
CC(C)C[C@H](NC(=O)OCc1ccccc1)C(=O)N[C@@H](CCc1ccccc1)C(=O)CO | Procathepsin L (Homo sapiens, UniProt P07711) | 640

----------
Protein target, amino acids: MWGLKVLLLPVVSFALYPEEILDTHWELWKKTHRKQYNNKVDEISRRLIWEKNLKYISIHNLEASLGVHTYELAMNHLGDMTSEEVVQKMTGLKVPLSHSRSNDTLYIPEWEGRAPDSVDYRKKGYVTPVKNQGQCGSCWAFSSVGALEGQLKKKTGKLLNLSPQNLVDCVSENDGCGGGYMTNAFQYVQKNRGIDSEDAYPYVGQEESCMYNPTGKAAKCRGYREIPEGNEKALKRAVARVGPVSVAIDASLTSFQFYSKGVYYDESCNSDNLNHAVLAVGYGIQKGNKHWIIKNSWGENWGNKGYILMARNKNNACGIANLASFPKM
List of Ki values.

COMPOUND | Ki
CC(C)C[C@H](NC(=O)c1ccc(CN)cc1)C(=O)N[C@@H](CCc1ccccc1)C(=O)CO | 3 nM
CC(C)C[C@H](NC(=O)OCc1ccccc1)C(=O)N[C@@H](CCc1ccccc1)C(=O)CO | 25 nM
CCCC[C@H](NC(=O)[C@@H](NC(=O)c1ccc(CN)cc1)C(C)CC)C(=O)CO (some centres undefined) | 20 nM
CC(=O)[C@H](CCc1ccccc1)NC(=O)[C@H](CC(C)C)NC(=O)OCc1ccccc1 | 1440 nM
CC(C)C[C@H](NC(=O)OCc1ccccc1)C(=O)N[C@@H](CCc1ccccc1)C(=O)COCc1ccccc1 | 1000 nM
CCOCC(=O)[C@H](CCc1ccccc1)NC(=O)[C@H](CC(C)C)NC(=O)OCc1ccccc1 | 947 nM
CCC(C)[C@H](NC(=O)OCc1ccccc1)C(=O)N[C@@H](CCc1ccccc1)C(=O)CO (some centres undefined) | 67 nM
CCC(C)[C@H](NC(=O)c1cccc(C(N)=O)c1)C(=O)N[C@@H](CCc1ccccc1)C(=O)CO (some centres undefined) | 111 nM
CCC(C)[C@H](NC(=O)c1cccc(CN)c1)C(=O)N[C@@H](CCc1ccccc1)C(=O)CO (some centres undefined) | 4 nM
